Target: Hepatitis C virus serine protease, NS3/NS4A (Hepatitis C virus, UniProt A3EZI9+D2K2A8)
Sequence (D2K2A8 whole entry): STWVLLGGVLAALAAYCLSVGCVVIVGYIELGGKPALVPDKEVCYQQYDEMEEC
Sequence (A3EZI9 whole entry): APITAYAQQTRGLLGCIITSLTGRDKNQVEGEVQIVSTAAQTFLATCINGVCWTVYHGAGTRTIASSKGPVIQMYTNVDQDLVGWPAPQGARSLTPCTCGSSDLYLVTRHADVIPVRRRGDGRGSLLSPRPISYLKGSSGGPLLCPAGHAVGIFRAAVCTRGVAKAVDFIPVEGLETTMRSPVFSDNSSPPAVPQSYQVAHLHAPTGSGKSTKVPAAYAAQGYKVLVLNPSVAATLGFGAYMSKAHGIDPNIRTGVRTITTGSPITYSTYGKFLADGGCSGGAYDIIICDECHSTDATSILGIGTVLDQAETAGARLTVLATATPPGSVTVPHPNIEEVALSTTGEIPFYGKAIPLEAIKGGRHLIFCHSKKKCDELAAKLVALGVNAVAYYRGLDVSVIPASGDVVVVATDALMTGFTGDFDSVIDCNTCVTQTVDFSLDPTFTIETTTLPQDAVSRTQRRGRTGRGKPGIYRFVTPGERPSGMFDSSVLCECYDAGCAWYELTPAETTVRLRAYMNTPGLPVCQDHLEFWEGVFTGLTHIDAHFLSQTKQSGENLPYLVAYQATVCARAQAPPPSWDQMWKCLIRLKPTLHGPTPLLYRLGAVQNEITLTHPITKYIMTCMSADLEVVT
Test: Inhibition of HCV genotype 1a NS3/4A protease using Ac-DED(Edans)EEAbu-psi[COO]ASK(Dabcyl)-NH2 as substrate by FRET assay
pKi: −log10 of the molar value.
METRIC_NAME: pKi

COc1ccc2c(O[C@@H]3C[C@@H](C(=O)Nc4ccccc4C(=O)NS(=O)(=O)c4ccccc4)N(C(=O)[C@@H](NC(=O)OC(C)(C)C)C(C)(C)C)C3)cc(-c3ccccc3)nc2c1    6.08
COc1cc(Oc2ccc(C3NC(=O)[C@H](NC(=O)OC(C)(C)C)CCCCC/C=C/CCCS(=O)(=O)NC(=O)c4ccccc4NC3=O)cc2)nc(-c2ccccc2)n1 (stereo in doubt; 29L)    6.96
CCC[C@H](NC(=O)C1[C@H]2CCC[C@H]2CN1C(=O)[C@@H](NC(=O)[C@@H](NC(=O)c1cnccn1)C1CCCCC1)C(C)(C)C)C(=O)C(=O)NC1CC1 (stereo not given in full)    7.40

A. CC[C@@H]1C[C@]1(NC(=O)[C@@H]1C[C@@H]2CN1C(=O)[C@H](C(C)(C)C)NC(=O)OCC(C)(C)CCCCc1cccc3c1CN(C3)C(=O)O2)C(=O)NS(=O)(=O)C1CC1
B. C=CCCCS(=O)(=O)NC(=O)c1ccccc1NC(=O)[C@@H](NC(=O)OC(C)(C)C)c1ccc(Oc2cc(OC)nc(-c3ccccc3)n2)c(C=C)c1
[ask] Compare reported pKi values for A and B . Which is lower? Refer to your chosen item by its label in the answer.
[reply] B
